# METHOD_DESCRIPTION: UV absorption (λmax, molar extinction ε, extinction value E 1%, 1 cm) of the triazine UV filters
# Assay type: physicochemical
# EXPERIMENTAL_SETUP: at λmax, in dioxane
MEASURED_METRIC: ε (L/mol/cm)

>>> print(df.to_string())
                                 mol_smiles  measured_number
0  CC1(C)OC(=O)C(=CNc2nc(NC=C3C(=O)OC(C)(C)OC3=O)nc(-c3ccccc3)n2)C(=O)O1            68000

----------
# METHOD_DESCRIPTION: UV absorption (λmax, molar extinction ε, extinction value E 1%, 1 cm) of the triazine UV filters
# Assay type: physicochemical
# EXPERIMENTAL_SETUP: at λmax, in ethanol
MEASURED_METRIC: ε (L/mol/cm)

>>> print(df.to_string())
                                 mol_smiles  measured_number
0  CC(=O)C(=CNc1nc(NC=C(C(C)=O)C(C)=O)nc(-c2ccccc2)n1)C(C)=O            42900
1  CCOC(=O)/C(=C\Nc1nc(N/C=C(\C(C)=O)C(=O)OCC)nc(-c2ccccc2)n1)C(C)=O            46000
